Biological target: T1, human MSLN-R3-his protein (human, UniProt Q13421 487-598)
T1 construct: Region 3 of human MSLN, His-tagged; also called human MSLN-R3 protein; hMSLN-R3-his; not shown: His tag
T1 sequence (Q13421 495-606): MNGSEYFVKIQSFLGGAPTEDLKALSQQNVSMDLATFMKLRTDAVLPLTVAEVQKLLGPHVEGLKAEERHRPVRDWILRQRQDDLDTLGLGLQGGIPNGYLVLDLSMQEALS
Assay: ELISA, coated MSLN-R3
experimental readout: OD450 at 0.01 nM (OD450)
Just the number please, in OD450, no unit attached.

Note to self: OD450 at 0.01 nM recorded for S009-F1.57.1 (antibody, human IgG1, kappa, V domains shown, Human-murine chimeric antibody, human IgG1/kappa constant regions) VH: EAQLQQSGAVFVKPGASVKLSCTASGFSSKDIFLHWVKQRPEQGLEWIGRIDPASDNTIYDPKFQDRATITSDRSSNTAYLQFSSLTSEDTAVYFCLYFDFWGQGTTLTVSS VL: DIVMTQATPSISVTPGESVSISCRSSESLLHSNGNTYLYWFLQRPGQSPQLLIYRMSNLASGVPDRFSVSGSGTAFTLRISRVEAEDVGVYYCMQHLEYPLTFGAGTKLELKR was 0.06
